Kindly supply the reported apparent KD of MS2 coat protein values for the records listed here.
System: MS2 coat protein
Assay: apparent KD of MS2 coat protein, switch OFF state (with FMN for OFF switches, without FMN for ON switches); designed switch direction (-1 OFF switch, 1 ON switch): 1; higher = weaker reporter binding
Conditions: FMN input: 0 or 200 uM; Eterna round: R93 (includes R88 designs)
Report only the number, with the unit nM understood.

[in] Suppose we examine the sequence AGGAGACAUGAGGAUCACCCAUGUGAGAAGAGGCGAGGAUAUCGAAAGAAAGAAGAGAAACGAGAAGGCGCGAGUA [salish99-SS1-018] ; what apparent KD of MS2 coat protein value has been reported?
[out] 40.8

[in] Record: GAAAAACAUGAGGAUCACCCAUGUAGAAAUAUGGGAGGAUAUACGAAGACGAAAGUCGAGGUAGAAGGCCUAAAAG [Garnet 54]
[out] 98

[in] Entry GGGAGACAUGAGGAUCACCCAUGUGAGAAGAGGCGAGGAUAUCGAAAGAAAGAAGAGAAACGAGAAGGCGCGAGUC [salish99-SS1-062] please
[out] 63.4

[in] Check AAGAGACAUGAGGAUCACCCAUGUAGGAUUAUGGGAGGAUAUACAAAGACGAGAGUCAGAGUAGAAGGCCUAGGAG [salish99-ss1-131(!)] too.
[out] 57.4

[in] Another: AGGAAACAUGAGGAUCACCCAUGUAAAAAUAUGGGAGGAUAUGCGAAAAGAAACAAAGAAGCAGAAGGCCUAAAAA [75%, Ex sub1, 21]
[out] 66.9

[in] Same again, this time with AAAAAACAUGAGGAUCACCCAUGUAGAAAUAUGGAAGGAUAUGGAAACACGAAAGUGAAACCAGAAGGUCCAAAAG [77%, Mat - Mod of Eli, 9]
[out] 23.9

---

Test system: MS2 coat protein
Test: apparent KD of MS2 coat protein; designed switch direction (-1 OFF switch, 1 ON switch): -1; higher = weaker reporter binding
Settings: input ligand: FMN 200 uM
# label = 1 (yes) if apparent KD of MS2 coat protein >= 0.04 µM else 0 (no)

[in] Is reported apparent KD of MS2 coat protein greater than or equal to 0.04 µM here: GAUCAUGCAGGAUAUACAUGGAACAUGAAAUCAUGAAUUUCACAUGAGGAUCACCCAUGUAGAAGGGCAUGAUC [Omei Ex2 A15] (Eterna round: R97, puzzle: Exclusion 2)
[out] 0 (no)

[in] Same read-out for UAUGGUUAAGUCAGGAUAUGCUCAUAGAAGUCUGUGCAGAAGGGACAUGAGGAUCACCCAUGUAUGGUAGUGUU [Ex4 #61] (Eterna round: R97, puzzle: Brourd's mod of Exclusion 4) ?
[out] 1 (yes)

[in] Then what about the sequence GAGUGGUGAGGAUAUACAUGAGGAUCACCCAUGUGCUUCAGCUAGGAGACUAGCAUUGGUAGAAGGCAUUACUC [Mod of lroppy 8 - Jieux - Exclusion 3] (Eterna round: R97, puzzle: Exclusion 3) ?
[out] 1 (yes)

[in] Same for UGAUCAGACCGAGGAUAUAUAUGUAGGACGCACGUGAGUGCGUCCAGUACAUGAGGAUCACCCAUGUAGAAGGCGGUCUGAUCU [JL ENG2 1.96] (Eterna round: R96, puzzle: Exclusion NG 2)
[out] 0 (no)
